System: THRa:RXRa (NR concentration 90 nM, RXRa partner concentration 90 nM)
Experiment: PBM binding z-score (relative to random genomic background probes); higher = stronger binding; sequences stand for … in GC…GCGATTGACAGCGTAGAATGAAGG
Quantity Name: PBM binding z-score
Form: value (number only, do not type unit).

Before answering, review these 5 worked examples.
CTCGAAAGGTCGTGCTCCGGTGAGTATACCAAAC 3.06
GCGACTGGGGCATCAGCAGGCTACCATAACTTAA -0.0992
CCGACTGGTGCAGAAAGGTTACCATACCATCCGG 0.935
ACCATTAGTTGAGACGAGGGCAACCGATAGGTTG 2.63
CGAACTCGGTCAGAACAGGACAGTGAAGGATGAT 1.78

Challenge: Would you kindly share the measured PBM binding z-score for `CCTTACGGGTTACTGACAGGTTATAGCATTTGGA` ?
Response given: 1.11

Challenge: Would you kindly share the measured PBM binding z-score for `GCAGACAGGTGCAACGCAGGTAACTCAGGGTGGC` ?
Response given: 2.13

Challenge: Would you kindly share the measured PBM binding z-score for `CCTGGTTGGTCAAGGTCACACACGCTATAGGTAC` ?
Response given: 4.36

Challenge: Would you kindly share the measured PBM binding z-score for `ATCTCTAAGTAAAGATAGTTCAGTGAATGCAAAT` ?
Response given: 0.429

Challenge: Would you kindly share the measured PBM binding z-score for `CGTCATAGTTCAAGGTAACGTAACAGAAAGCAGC` ?
Response given: 2.32

Challenge: Would you kindly share the measured PBM binding z-score for `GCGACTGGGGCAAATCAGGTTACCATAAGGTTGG` ?
Response given: 4.22

Challenge: Would you kindly share the measured PBM binding z-score for `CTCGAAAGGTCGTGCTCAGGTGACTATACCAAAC` ?
Response given: 4.26
